Molecular target: ATP-dependent translocase ABCB1 (Homo sapiens, UniProt P08183)
Sequence (P08183 whole entry): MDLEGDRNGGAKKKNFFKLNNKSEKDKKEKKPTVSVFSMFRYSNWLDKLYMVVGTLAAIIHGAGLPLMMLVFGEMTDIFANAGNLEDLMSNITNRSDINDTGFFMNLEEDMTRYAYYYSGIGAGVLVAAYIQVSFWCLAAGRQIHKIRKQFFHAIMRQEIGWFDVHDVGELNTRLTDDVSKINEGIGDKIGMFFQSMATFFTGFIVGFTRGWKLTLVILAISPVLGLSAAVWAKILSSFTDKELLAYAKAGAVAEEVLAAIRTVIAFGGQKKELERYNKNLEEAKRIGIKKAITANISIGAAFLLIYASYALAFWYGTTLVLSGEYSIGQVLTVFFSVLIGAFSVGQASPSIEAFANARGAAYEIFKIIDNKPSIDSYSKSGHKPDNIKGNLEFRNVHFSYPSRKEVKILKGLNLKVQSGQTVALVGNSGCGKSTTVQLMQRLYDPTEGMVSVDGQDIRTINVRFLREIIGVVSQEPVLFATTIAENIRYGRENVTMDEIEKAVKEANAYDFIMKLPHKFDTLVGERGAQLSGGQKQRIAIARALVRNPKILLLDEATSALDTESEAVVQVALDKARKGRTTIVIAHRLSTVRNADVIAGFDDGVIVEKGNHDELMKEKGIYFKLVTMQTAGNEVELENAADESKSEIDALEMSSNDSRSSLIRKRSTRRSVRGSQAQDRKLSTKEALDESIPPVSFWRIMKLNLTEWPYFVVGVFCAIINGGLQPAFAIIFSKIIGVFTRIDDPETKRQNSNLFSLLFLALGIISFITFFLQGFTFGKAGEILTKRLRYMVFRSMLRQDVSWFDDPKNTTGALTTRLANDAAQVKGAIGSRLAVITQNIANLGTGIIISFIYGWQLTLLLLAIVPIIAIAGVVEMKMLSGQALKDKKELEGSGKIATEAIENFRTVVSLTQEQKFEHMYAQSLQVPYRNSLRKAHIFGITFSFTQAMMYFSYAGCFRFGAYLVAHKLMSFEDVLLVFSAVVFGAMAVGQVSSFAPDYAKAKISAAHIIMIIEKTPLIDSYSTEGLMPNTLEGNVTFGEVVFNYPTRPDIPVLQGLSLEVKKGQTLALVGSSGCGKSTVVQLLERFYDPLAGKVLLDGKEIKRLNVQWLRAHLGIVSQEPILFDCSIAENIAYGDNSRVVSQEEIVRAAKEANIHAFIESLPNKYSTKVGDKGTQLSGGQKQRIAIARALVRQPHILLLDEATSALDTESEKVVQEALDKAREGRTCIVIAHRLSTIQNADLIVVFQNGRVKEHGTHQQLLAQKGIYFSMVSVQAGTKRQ
Assay: Inhibition of human MDR1 expressed in mouse L5178Y cells assessed as Rhodamine-123 accumulation measured as fluorescence activity at 2 uM after 20 mins by flow cytometry relative to control
Type: cell-based
Note to self: values exactly at 4 are T. So Ratio at or above 4 is T, below is F.

C/C1=C\[C@@H]2[C@H](CC[C@]3(CO3)[C@H](O)[C@H]3[C@@H](OC(=O)/C=C/c4ccccc4)[C@@H](C)C[C@]3(O)C1=O)C2(C)C | F
CC(=O)O[C@@H]1[C@H]2[C@@H](OC(=O)c3ccccc3)[C@@H](C)C[C@]2(OC(C)=O)C(=O)/C(C)=C/[C@@H]2[C@H](CC[C@]13CO3)C2(C)C | T
CCCC(=O)O[C@@H]1[C@@H]2[C@@H](OC(C)=O)[C@]3(CC[C@H]4[C@@H](/C=C(\C)C(=O)[C@@]2(OC(C)=O)C[C@@H]1C)C4(C)C)CO3 | T

stdin: I'd appreciate it if you could say whether C/C1=C\[C@@H]2[C@H](CC[C@]3(CO3)[C@H](OC(=O)c3ccccc3)[C@H]3[C@@H](OC(=O)c4ccccc4)[C@@H](C)C[C@]3(OC(=O)c3ccccc3)C1=O)C2(C)C has Ratio at least equal to 4.
stdout: F

###

Molecular target: ATP-dependent translocase ABCB1 (Homo sapiens, UniProt P08183)
Assay: Inhibition of human MDR1 expressed in mouse L5178Y cells assessed as Rhodamine-123 accumulation measured as fluorescence activity at 20 uM after 20 mins by flow cytometry relative to control
Format: cell-based
Recorded Ratio, one value per entry.

Please review the following examples before continuing.
CCC(=O)O[C@@H]1[C@@H]2[C@@H](OC(C)=O)[C@]3(CC[C@H]4[C@@H](/C=C(\C)C(=O)[C@@]2(OC(C)=O)C[C@@H]1C)C4(C)C)CO3 | 1
C/C1=C\[C@@H]2[C@H](CC[C@]3(CO3)[C@H](OC(=O)c3ccccc3)[C@H]3[C@@H](OC(=O)c4ccccc4)[C@@H](C)C[C@]3(OC(=O)c3ccccc3)C1=O)C2(C)C | 35.2
C/C1=C\[C@@H]2[C@H](CC[C@]3(CO3)[C@H](OC(=O)c3ccccc3)[C@H]3[C@@H](OC(=O)c4ccccc4)[C@@H](C)C[C@]3(O)C1=O)C2(C)C | 22.9

stdin: Which Ratio value belongs to CC(=O)O[C@@H]1[C@H]2[C@@H](OC(=O)c3ccccc3)[C@@H](C)C[C@]2(OC(C)=O)C(=O)/C(C)=C/[C@@H]2[C@H](CC[C@]13CO3)C2(C)C ?
stdout: 80.6

stdin: Item: C/C1=C\[C@@H]2[C@H](CC[C@]3(CO3)[C@H](OC(=O)c3ccc(C)cc3)[C@H]3[C@@H](OC(=O)c4ccc(C)cc4)[C@@H](C)C[C@]3(O)C1=O)C2(C)C
stdout: 26.5

stdin: Item: C/C1=C\[C@@H]2[C@H](CC[C@]3(CO3)[C@H](O)[C@H]3[C@@H](O)[C@@H](C)C[C@]3(O)C1=O)C2(C)C
stdout: 1.5

stdin: Item: CC(=O)O[C@@H]1[C@@H]2[C@@H](OC(C)=O)[C@]3(CC[C@H]4[C@@H](/C=C(\C)C(=O)[C@@]2(OC(C)=O)C[C@@H]1C)C4(C)C)CO3
stdout: 1

stdin: Item: CC(=O)O[C@@H]1[C@H]2[C@@H](OC(=O)CC(C)C)[C@@H](C)C[C@]2(OC(C)=O)C(=O)/C(C)=C/[C@@H]2[C@H](CC[C@]13CO3)C2(C)C
stdout: 7.8

###

Target: ATP-dependent translocase ABCB1 (Homo sapiens)
Test: Inhibition of human MDR1 expressed in mouse L5178Y cells assessed as Rhodamine-123 accumulation measured as fluorescence activity at 40 uM after 20 mins by flow cytometry relative to control
Format: cell-based
Recorded Ratio, one value per entry.
Field format: numeric only.

Please review the following examples before continuing.
CCCC(=O)O[C@@H]1[C@@H]2[C@@H](OC(=O)CCC)[C@]3(CC[C@H]4[C@@H](/C=C(\C)C(=O)[C@@]2(OC(=O)CCC)C[C@@H]1C)C4(C)C)CO3 | 98
CC(=O)O[C@@H]1[C@H]2[C@@H](OC(=O)c3ccccc3)[C@@H](C)C[C@]2(OC(C)=O)C(=O)/C(C)=C/[C@@H]2[C@H](CC[C@]13CO3)C2(C)C | 102.9
CCCC(=O)O[C@@H]1[C@@H]2[C@@H](OC(C)=O)[C@]3(CC[C@H]4[C@@H](/C=C(\C)C(=O)[C@@]2(OC(C)=O)C[C@@H]1C)C4(C)C)CO3 | 96.9

Okay, next one:
stdin: Which Ratio value belongs to C/C1=C\[C@@H]2[C@H](CC[C@]3(CO3)[C@H](OC(=O)Cc3ccccc3)[C@H]3[C@@H](OC(=O)Cc4ccccc4)[C@@H](C)C[C@]3(O)C1=O)C2(C)C ?
stdout: 80.8

###

Recorded CI, one value per entry.
Tested on: L5178Y
Assay: Antiproliferative activity against human MDR1 transfected mouse L5178Y cells after 48 hrs by MTT assay in presence of doxorubicin
Type: functional
Field format: numeric only.

Please review the following examples before continuing.
CC(=O)O[C@@H]1[C@H]2[C@@H](OC(=O)CC(C)C)[C@@H](C)C[C@]2(OC(C)=O)C(=O)/C(C)=C/[C@@H]2[C@H](CC[C@]13CO3)C2(C)C | 0.43
CCCC(=O)O[C@@H]1[C@@H]2[C@@H](OC(=O)CCC)[C@]3(CC[C@H]4[C@@H](/C=C(\C)C(=O)[C@@]2(OC(=O)CCC)C[C@@H]1C)C4(C)C)CO3 | 0.33
CC(=O)O[C@@H]1[C@@H]2[C@@H](OC(C)=O)[C@]3(CC[C@H]4[C@@H](/C=C(\C)C(=O)[C@@]2(OC(C)=O)C[C@@H]1C)C4(C)C)CO3 | 0.24
C/C1=C\[C@@H]2[C@H](CC[C@]3(CO3)[C@H](O)[C@H]3[C@@H](OC(=O)/C=C/c4ccccc4)[C@@H](C)C[C@]3(O)C1=O)C2(C)C | 1.4
C/C1=C\[C@@H]2[C@H](CC[C@]3(CO3)[C@H](O)[C@H]3[C@@H](O)[C@@H](C)C[C@]3(O)C1=O)C2(C)C | 0.66
COc1ccc(C(=O)O[C@@H]2[C@@H]3[C@@H](OC(=O)c4ccc(OC)cc4)[C@]4(CC[C@H]5[C@@H](/C=C(\C)C(=O)[C@@]3(O)C[C@@H]2C)C5(C)C)CO4)cc1 | 0.36

stdin: Which CI value belongs to C/C1=C\[C@@H]2[C@H](CC[C@]3(CO3)[C@H](OC(=O)c3ccccc3)[C@H]3[C@@H](OC(=O)c4ccccc4)[C@@H](C)C[C@]3(O)C1=O)C2(C)C ?
stdout: 0.24

stdin: Item: C/C1=C\[C@@H]2[C@H](CC[C@]3(CO3)[C@H](OC(=O)c3ccc(C)cc3)[C@H]3[C@@H](OC(=O)c4ccc(C)cc4)[C@@H](C)C[C@]3(O)C1=O)C2(C)C
stdout: 0.29

stdin: Item: CCCC(=O)O[C@@H]1[C@@H]2[C@@H](OC(C)=O)[C@]3(CC[C@H]4[C@@H](/C=C(\C)C(=O)[C@@]2(OC(C)=O)C[C@@H]1C)C4(C)C)CO3
stdout: 0.2

###

Target: ATP-dependent translocase ABCB1 (Homo sapiens)
Test: Inhibition of human MDR1 expressed in mouse L5178Y cells assessed as Rhodamine-123 accumulation measured as fluorescence activity at 2 uM after 20 mins by flow cytometry relative to control
Type: cell-based
Note to self: values exactly at 3 are Yes. So Ratio at or above 3 is Yes, below is No.

C/C1=C\[C@@H]2[C@H](CC[C@]3(CO3)[C@H](OC(=O)c3ccc(C)cc3)[C@H]3[C@@H](OC(=O)c4ccc(C)cc4)[C@@H](C)C[C@]3(O)C1=O)C2(C)C | Yes
CCCC(=O)O[C@@H]1[C@@H]2[C@@H](OC(=O)CCC)[C@]3(CC[C@H]4[C@@H](/C=C(\C)C(=O)[C@@]2(OC(=O)CCC)C[C@@H]1C)C4(C)C)CO3 | No
CCCCC(CC)C(=O)O[C@@H]1[C@@H]2[C@@H](OC(=O)C(CC)CCCC)[C@]3(CC[C@H]4[C@@H](/C=C(\C)C(=O)[C@@]2(O)C[C@@H]1C)C4(C)C)CO3 (stereo not given in full) | Yes

Continue with the compound presented below.
stdin: I'd appreciate it if you could say whether C/C1=C\[C@@H]2[C@H](CC[C@]3(CO3)[C@H](OC(=O)c3ccccc3)[C@H]3[C@@H](OC(=O)c4ccccc4)[C@@H](C)C[C@]3(O)C1=O)C2(C)C has Ratio at least equal to 3.
stdout: No

###

Test system: L5178Y
Experiment: Antiproliferative activity against human MDR1 transfected mouse L5178Y cells after 48 hrs by MTT assay in presence of doxorubicin
Assay type: functional
experimental_readout: CI
Field format: numeric only.

Please review the following examples before continuing.
C/C1=C\[C@@H]2[C@H](CC[C@]3(CO3)[C@H](OC(=O)Cc3ccccc3)[C@H]3[C@@H](OC(=O)Cc4ccccc4)[C@@H](C)C[C@]3(O)C1=O)C2(C)C | 1.38
CCC(=O)O[C@@H]1[C@@H]2[C@@H](OC(C)=O)[C@]3(CC[C@H]4[C@@H](/C=C(\C)C(=O)[C@@]2(OC(C)=O)C[C@@H]1C)C4(C)C)CO3 | 0.05
C/C1=C\[C@@H]2[C@H](CC[C@]3(CO3)[C@H](OC(=O)c3ccccc3)[C@H]3[C@@H](OC(=O)c4ccccc4)[C@@H](C)C[C@]3(OC(=O)c3ccccc3)C1=O)C2(C)C | 0.79
CCCCC(CC)C(=O)O[C@@H]1[C@@H]2[C@@H](OC(=O)C(CC)CCCC)[C@]3(CC[C@H]4[C@@H](/C=C(\C)C(=O)[C@@]2(O)C[C@@H]1C)C4(C)C)CO3 (stereo not given in full) | 0.46

Okay, next one:
stdin: Which CI value belongs to CC(=O)O[C@@H]1[C@H]2[C@@H](OC(=O)c3ccccc3)[C@@H](C)C[C@]2(OC(C)=O)C(=O)/C(C)=C/[C@@H]2[C@H](CC[C@]13CO3)C2(C)C ?
stdout: 0.27

// provenance: ChEMBL document CHEMBL3352638
